// provenance: paper PMC10343472

Tested on: nine adenovirus types that commonly infect the eye
test.description: plaque reduction assay, whole panel of ocular HAdV types
Format: cell-based, Human adenovirus
assay.setup: unidentified adenovirus, read-out: EC50 concentrations across the panel of HAdV types, panel of HAdV types that commonly infect the eye
pEC50: −log10 of the molar value.
metric.name: pEC50

Q) Please list pEC50 recorded for the compound Nc1ccn([C@@H]2C=C(CO)[C@@H](O)[C@H]2O)c(=O)n1
A) > 6.60

###

EC50 values for the molecules below.
System: HAdV3
test.description: plaque reduction assay in A549 cells, HAdV3
Type: cell-based
assay.setup: Human adenovirus sp., A549; HAdV3; converted from μg/mL
Numbers only here, please. The scale is µM.

{"columns": ["molecule", "EC50, µM"],
 "data": [
  ["Nc1ccn(C[C@@H](CO)OCP(=O)(O)O)c(=O)n1 [Cidofovir, cidofovir, reference compound]", 14.8]
]}

Turning now to a further record.
Q) Please list EC50 recorded for the molecule Nc1ccn([C@@H]2C=C(CO)[C@@H](O)[C@H]2O)c(=O)n1 [CPE-C, Cyclopentenylcytosine]
A) 0.165

###

Test system: HAdV7a
test.description: plaque reduction assay in A549 cells, HAdV7a
Format: cell-based, Human adenovirus
assay.setup: Human adenovirus sp., A549, HAdV7a; converted from μg/mL
pEC50 values for the compounds below.
When answering, recall that pEC50 equals minus log10 of the concentration in mol/L, and write that number alone.

{"columns": ["compound", "pEC50"],
 "data": [
  ["Nc1ccn(C[C@@H](CO)OCP(=O)(O)O)c(=O)n1 [Cidofovir, cidofovir, reference compound]", 4.72]
]}

Q) Consider the compound Nc1ccn([C@@H]2C=C(CO)[C@@H](O)[C@H]2O)c(=O)n1 [CPE-C, Cyclopentenylcytosine] tested on HAdV7a; state its pEC50.
A) 6.71

###

pEC50 values for the compounds below.
System: HAdV1
test.description: plaque reduction assay in A549 cells, HAdV1
Format: cell-based
assay.setup: Human adenovirus sp., A549; HAdV1; converted from μg/mL
When answering, recall that pEC50 equals minus log10 of the concentration in mol/L, and write that number alone.

{"columns": ["compound", "tested.system", "pEC50"],
 "data": [
  ["Nc1ccn(C[C@@H](CO)OCP(=O)(O)O)c(=O)n1 [Cidofovir, cidofovir, reference compound]", "HAdV1", 4.72]
]}

Turning now to a further record.
Q) Please list pEC50 recorded for the compound Nc1ccn([C@@H]2C=C(CO)[C@@H](O)[C@H]2O)c(=O)n1
A) 6.67

###

pEC50 values for the compounds below.
Tested on: HAdV4
test.description: plaque reduction assay in A549 cells, HAdV4
Format: cell-based
assay.setup: Human adenovirus sp., A549; HAdV4; converted from μg/mL
When answering, recall that pEC50 equals minus log10 of the concentration in mol/L, and write that number alone.

{"columns": ["compound", "tested.system", "pEC50"],
 "data": [
  ["Nc1ccn(C[C@@H](CO)OCP(=O)(O)O)c(=O)n1 [Cidofovir, cidofovir, reference compound]", "HAdV4", 4.78]
]}

Turning now to a further record.
Q) Please list pEC50 recorded for the compound Nc1ccn([C@@H]2C=C(CO)[C@@H](O)[C@H]2O)c(=O)n1
A) 6.87
